- Tested on: 941728-121-R-J1-PDC complex spheroid viability
- assay_summary: Anticancer human tumor 941728-121-R-J1-PDC patient-derived lung adenocarcinoma cell line growth inhibition [RAS]
- condition_parameters: curve of first compound; second compound 0.316 µM
quantity: IC50

Need IC50, item CCN1CCN(Cc2ccc(Nc3ncc(F)c(-c4cc(F)c5nc(C)n(C(C)C)c5c4)n3)nc2)CC1 + C#Cc1c(F)ccc2cc(O)cc(-c3ncc4c(N5CC6CCC(C5)N6)nc(OCC56CCCN5CC(F)C6)nc4c3F)c12
> 1 µM

Also, C[C@@H](NC(=O)c1ncnc(N)c1Cl)c1ncc(C(=O)Nc2cc(C(F)(F)F)c(Cl)cn2)s1 + C#Cc1c(F)ccc2cc(O)cc(-c3ncc4c(N5CC6CCC(C5)N6)nc(OCC56CCCN5CC(F)C6)nc4c3F)c12 please.
2.68 µM

Likewise for CCN1CCN(Cc2ccc(Nc3ncc(F)c(-c4cc(F)c5nc(C)n(C(C)C)c5c4)n3)nc2)CC1 + C=CC(=O)N1CCN(c2nc(OCC3CCCN3C)nc3c(F)c(-c4nc(N)cc(C)c4C(F)(F)F)c(Cl)cc23)C(C)C1 ?
< 0.00316 µM

###

- Test system: 941728-121-R-J1-PDC complex spheroid viability
- assay_summary: Anticancer human tumor 941728-121-R-J1-PDC cell line growth inhibition [RAS];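 note: spheroids exposed to compounds for 7 days before readout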;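 for viability, T/C: 100% = DMSO vehicle control viability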
- condition_parameters: second compound 0.0316 µM; first compound 1 µM; stronger effect = lower value
quantity: viability, T/C (%)
Give your result in % as a bare value.

compound	result_unit	viability, T/C
NC1c2ccccc2OC12CCN(c1cnc3c(N4CCCc5ncccc54)n[nH]c3n1)CC2 (stereo not drawn) + C=CC(=O)N1CCN(c2nc(OCC3CCCN3C)nc3c(F)c(-c4nc(N)cc(C)c4C(F)(F)F)c(Cl)cc23)C(C)C1	%	16.8

Under 941728-121-R-J1-PDC complex spheroid viability: viability, T/C value of CC(=O)OC12COC1CC(O)C1(C)C(=O)C(O)C3=C(C)C(OC(=O)C(O)C(NC(=O)OC(C)(C)C)c4ccccc4)CC(O)(C(OC(=O)c4ccccc4)C21)C3(C)C (stereo not drawn) + C#Cc1c(F)ccc2cc(O)cc(-c3ncc4c(N5CC6CCC(C5)N6)nc(OCC56CCCN5CC(F)C6)nc4c3F)c12 ?
37.6

Entry to check: NC1c2ccccc2OC12CCN(c1cnc3c(N4CCCc5ncccc54)n[nH]c3n1)CC2 (stereo not drawn) + C#Cc1c(F)ccc2cc(O)cc(-c3ncc4c(N5CC6CCC(C5)N6)nc(OCC56CCCN5CC(F)C6)nc4c3F)c12
35.9
